- System: NCI-H460 lung
- assay.method.text: NCI-60 one-dose screen, 48 h
- experimental.parameters: 10 µM unless noted
This is part of a sample that, as a whole, favours compounds with a hit. Of some 83,000 tested, about 20% had one in any assay. The source made the active and inactive calls. Rule for the calls: active = growth percent below 10; inactive = the rest.
Thanks in advance; please answer with one of these: active, inactive

Here are 2 compounds together with their reported answers.
COC(=O)[C@@]1(C)CC[C@]2(C)CC[C@]3(C)C(=CC(=O)[C@@H]4[C@@]5(C)Cc6c(n(CC#CCN7CCN(C)CC7)c7ccccc67)C(C)(C)[C@@H]5CC[C@]43C)[C@@H]2C1 :: inactive
CC[C@@](C)(NC(=O)C(C)(C)NC(=O)[C@@H](NC(=O)[C@@H]1CCCN1C(=O)C(C)(C)NC(=O)[C@H](CC(C)C)NC(=O)CNC(=O)C(C)(C)NC(=O)[C@@H](NC(=O)C(C)(C)NC(=O)[C@H](CCC(N)=O)NC(=O)[C@H](C)NC(=O)C(C)(C)NC(=O)[C@H](C)NC(=O)C(C)(C)NC(=O)[C@H](C)NC(=O)C(C)(C)NC(C)=O)C(C)C)C(C)C)C(=O)N[C@@H](CCC(N)=O)C(=O)N[C@@H](CCC(N)=O)C(=O)N[C@H](CO)CC1CCCCC1 :: inactive

-- ask Can you look up the reported call for COc1ccc(-c2nn(-c3ccccc3)cc2/C=C/C(=O)c2ccc(NC(=O)CCCCCCC(=O)NO)cc2)cc1 for me?
-- reply inactive

-- ask Here is the next compound: COc1ccc(C2CC(c3ccc(Nc4nc(NCCO)nc(Nc5ccc(Cl)cc5)n4)cc3)=Nc3c(N)nc(N)nc3N2)cc1 (stereo not given)
-- reply inactive

-- ask Here is the next compound: COc1cc2c3c(n(CCCNC4CCCC4)c(=O)c2cc1OC)-c1cc2c(cc1C3=O)OCO2
-- reply active

-- ask Here is the next compound: O=C(/C=C/c1cn(-c2ccccc2)nc1-c1ccc(Cl)cc1)c1cc2ccccc2oc1=O
-- reply inactive

-- ask Here is the next compound: CC(=O)Nc1ccc(NC(=O)Nc2cccc(-c3nc(-c4ccc(NC(=O)c5cccs5)cc4Cl)no3)c2)cc1C(F)(F)F
-- reply active

-- ask Here is the next compound: Brc1cccc(/C=N/Nc2nc(N/N=C/c3cccc(Br)c3)nc(N3CCOCC3)n2)c1
-- reply inactive

----------
- Test system: HOP-92 NSCLC
- assay.method.text: NCI-60 one-dose screen, 48 h
- experimental.parameters: 10 µM unless noted
Compounds without any hit were thinned out: in the full panel of roughly 83,000, 20% have a hit. The source made the active and inactive calls. The calls were made as follows: active = growth percent below 10; inactive = the rest.
Thanks in advance; please answer with one of these: Yes = active, No = inactive

C/C(=C(/C)C1CC1CCN(C(=O)c1ccc([N+](=O)[O-])cc1)S(=O)(=O)c1ccc(C)cc1)C1CCCCC1 (stereo unspecified) :: Yes
CS(=O)(=O)c1nccc(-c2c(-c3ccc(F)c(OCc4ccccc4)c3)nc3sccn23)n1 :: Yes
NS(=O)(=O)c1ccc(Nc2nc(N/N=C/c3ccc(C(F)(F)F)cc3)nc(Nc3ccccc3)n2)cc1 :: No
CCC(C)[C@H]1OC(=O)[C@H](C(C)C)N(C)C(=O)[C@@H](C(C)C)OC(=O)[C@H](C(C)C)N(C)C(=O)[C@@H](C(C)CC)OC(=O)[C@H](C(C)C)N(C)C1=O (stereo partly specified) :: Yes
O=C(CCCCCCN1CC(=O)N2[C@@H](c3cccc(Br)c3)c3[nH]c4ccccc4c3C[C@H]2C1=O)NO :: Yes
Nc1nc(-c2cccc([N+](=O)[O-])c2)c(N=Nc2ccccc2[N+](=O)[O-])s1 :: Yes

-- ask Can you look up the reported call for CCOC(=O)c1c(NCC(=O)Nc2ccc(Br)cc2)sc2c1CCCC2 for me?
-- reply No

-- ask Here is the next compound: Cn1cc(-c2nn3cc(-c4ccncc4)nc3s2)c2cc(Cl)ccc21
-- reply Yes
